Source listed as patent US20260297042A1.

Reported values of IC50 for individual entries
tested on: Human PKMYT1 (Homo sapiens, UniProt Q99640)
Construct: Human PKMYT1 75-362 was cloned as a TEV cleavable 6xHis fusion; 6xHis (TEV cleavable) (cleaved yes); made in house; host or cells: bacterial cells
experimental details: PKMYT1 biochemical ADP-Glo enzymatic assay
experimental setup: ADP-Glo; 15 nM PKMYT1 kinase domain, 500 µM ATP, 60 minutes at 26° C.; banded

molecule="COc1cc(-c2cccc(Nc3ncc(C(=O)Nc4c(C)ccc(O)c4C)s3)n2)cc(OC)c1OC [BAA-317]" observed_value="< 50 nM"
molecule="CCOC(=O)Cn1ccc(Nc2ncc(C(=O)Nc3c(C)ccc(O)c3C)s2)n1 [BAA-023]" observed_value="< 50 nM"

# query: IC50 of entry Cc1ccc(O)c(C)c1NC(=O)c1cnc(Nc2ccc(S(C)(=O)=O)cc2)s1 [BAA-275]
< 50 nM

# iterate: Cc1ccc(O)c(C)c1NC(=O)c1cnc(NCCCN2CCOCC2)s1 [BAA-065]
50 to 1000 nM

Now the molecule COC(=O)CCC(=O)N1CC[C@@H](n2ccc(Nc3ncc(C(=O)Nc4c(C)ccc(O)c4C)s3)n2)C1 [BAA-091]
50 to 1000 nM

###

tested on: Human PKMYT1 (Homo sapiens)
Construct: Human PKMYT1 75-362 was cloned as a TEV cleavable 6xHis fusion; 6xHis (TEV cleavable) (cleaved yes); made in house; host or cells: bacterial cells
Sequence (Q99640 75-362): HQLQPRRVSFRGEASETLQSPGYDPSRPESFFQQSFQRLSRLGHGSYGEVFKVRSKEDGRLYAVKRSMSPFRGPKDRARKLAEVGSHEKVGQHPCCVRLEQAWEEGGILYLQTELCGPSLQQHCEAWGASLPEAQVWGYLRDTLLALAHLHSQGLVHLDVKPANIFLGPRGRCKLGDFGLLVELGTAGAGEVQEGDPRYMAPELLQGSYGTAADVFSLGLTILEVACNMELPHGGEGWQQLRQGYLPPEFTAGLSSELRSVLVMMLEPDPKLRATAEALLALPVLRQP
experimental details: PKMYT1 biochemical ADP-Glo enzymatic assay
experimental setup: PKMYT1 biochemical ADP-Glo enzymatic assay; Comparison Data 2
property name: IC50 (µM)

a: Cc1cccc(C)c1NC(=O)c1cnc(Nc2ccn(C)n2)s1 [REF-003, reference compound]
b: Cc1ccc(O)c(C)c1NC(=O)c1cnc(Nc2ccn(C)n2)s1
Field: entry with larger IC50 (options a / b ). Write the label of whichever entry you select.
a
(a: 54.3 µM, b: 0.055 µM)

###

Entries and their IC50 values follow.
tested on: WEE1 (Homo sapiens, UniProt P30291)
Construct: purchased Thermo Fisher PR7373A
Sequence (P30291 whole entry): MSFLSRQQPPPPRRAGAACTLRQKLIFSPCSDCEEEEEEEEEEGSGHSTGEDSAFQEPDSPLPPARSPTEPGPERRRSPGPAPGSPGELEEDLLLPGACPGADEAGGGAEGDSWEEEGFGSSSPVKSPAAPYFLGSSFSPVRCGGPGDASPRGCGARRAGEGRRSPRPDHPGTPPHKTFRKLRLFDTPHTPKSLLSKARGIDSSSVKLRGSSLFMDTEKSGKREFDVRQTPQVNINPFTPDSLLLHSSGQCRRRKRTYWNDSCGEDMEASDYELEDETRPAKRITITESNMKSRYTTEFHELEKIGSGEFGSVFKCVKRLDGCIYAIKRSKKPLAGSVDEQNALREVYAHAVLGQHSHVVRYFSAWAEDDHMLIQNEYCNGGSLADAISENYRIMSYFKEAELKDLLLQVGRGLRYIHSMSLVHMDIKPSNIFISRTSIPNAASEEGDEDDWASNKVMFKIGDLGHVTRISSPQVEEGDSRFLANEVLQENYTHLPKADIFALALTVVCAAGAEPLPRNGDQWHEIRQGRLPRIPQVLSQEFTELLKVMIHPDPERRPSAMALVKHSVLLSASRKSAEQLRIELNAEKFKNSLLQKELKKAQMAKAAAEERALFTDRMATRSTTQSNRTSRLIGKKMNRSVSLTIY
experimental details: Selectivity versus WEE1 assay (ADP-Glo enzymatic assay)
Format: biochemical
experimental setup: ADP-Glo; 15 nM WEE1, 60 minutes at 26° C.; banded

Examples with their reported IC50 follow.
compound="COc1ccc(NC(=O)C(C)(C)C)nc1Nc1ncc(C(=O)Nc2c(C)ccc(O)c2C)s1.Cl [BAA-330, hydrochloride]" property_name=IC50 observed_value="> 11 µM"
compound=Cc1ccc(O)c(C)c1NC(=O)c1cnc(Nc2ccn(CC(=O)N3CCC(O)CC3)n2)s1 property_name=IC50 observed_value="> 11 µM"
compound=Cc1ccc(O)c(C)c1NC(=O)c1cnc(Nc2ccn([C@@H]3CCN(C(=O)c4ccccc4)C3)n2)s1 property_name=IC50 observed_value="> 11 µM"
compound=Cc1ccc(O)c(C)c1NC(=O)c1cnc(NCCO)s1 property_name=IC50 observed_value="> 11 µM"
compound=Cc1cn(-c2cncc(C(F)(F)F)c2)nc1Nc1ncc(C(=O)Nc2c(C)ccc(O)c2C)s1 property_name=IC50 observed_value="1 to 11 µM"
compound=CCN(CC)C(=O)Cn1nc(Nc2ncc(C(=O)Nc3c(C)ccc(O)c3C)s2)cc1C property_name=IC50 observed_value="> 11 µM"
compound="Cc1ccc(O)c(C)c1NC(=O)c1cnc(Nc2ccn(CC3CCOC3)n2)s1 (stereo not shown)" property_name=IC50 observed_value="1 to 11 µM"
compound=Cc1ccc(O)c(C)c1NC(=O)c1cnc(Nc2ccn(CC(=O)N3CCCCC3)n2)s1 property_name=IC50 observed_value="> 11 µM"

Requested field: IC50. Item: `Cc1ccc(O)c(C)c1NC(=O)c1cnc(Nc2ccn(CCCO)n2)s1`
1 to 11 µM

Queued: `Cc1ccc(O)c(C)c1NC(=O)c1cnc(Nc2ccn(CC(=O)N3CC(F)(F)C(F)(F)C3)n2)s1`
> 11 µM

Same read-out for `Cc1cn(-c2scnc2C)nc1Nc1ncc(C(=O)Nc2c(C)ccc(O)c2C)s1` ?
1 to 11 µM

Then this compound: `Cc1ccc(O)c(C)c1NC(=O)c1cnc(Nc2c3cccnc3nn2C)s1`
1 to 11 µM

Can you handle `Cc1ccc(O)c(C)c1NC(=O)c1cnc(Nc2ccn(CC(=O)NC3CCCC3)n2)s1` next?
> 11 µM

Next up: `Cc1ccc(O)c(C)c1NC(=O)c1cnc(Nc2ccn(CC(=O)N3CC4CCC(C3)N4C(=O)OC(C)(C)C)n2)s1`
> 11 µM

Now the compound `Cc1ccc(O)c(C)c1NC(=O)c1cnc(N[C@H](C)c2ccccc2)s1`
> 11 µM

Now consider `Cc1ccc(O)c(C)c1NC(=O)c1cnc(Nc2ccn([C@@H]3CCN(C(=O)C(C)C)C3)n2)s1` and answer again.
> 11 µM

Follow-up entry: `Cc1ccc(O)c(C)c1NC(=O)c1cnc(Nc2ccn(CC(=O)NCCN3CCNCC3)n2)s1`
> 11 µM
